This collection of values is drawn from paper PMC8944748.

viability at 48 h, 43.8 µM values for the compounds below.
ASSAY_INFO: Cell viability of B16F10 cells, CCK-8 assay
Assay type: cell-based, mouse
STUDY_CONDITIONS: mouse, B16F10 melanoma cells, 43.8 µM, percentage of the control
Kindly answer with a numeric value in %, unit omitted.

| COMPOUND | UNIT_ANNOTATION | VALUE_MEASURED |
| --- | --- | --- |
| O=c1cc(CO)occ1O | % | 112 |
| OC[C@H]1O[C@H](Oc2ccc(O)cc2)[C@H](O)[C@@H](O)[C@@H]1O | % | 108 |
| Oc1ccc(OC2CCCCO2)cc1 (stereo not shown) | % | 128 |

Tell me its viability at 48 h, 43.8 µM given OC[C@H]1O[C@@H](Oc2ccc(O)cc2)[C@H](O)[C@@H](O)[C@@H]1O as the entry.
115
